- Tested on: Mycobacterium tuberculosis Erdman (autoluminescent)
- experimentalProtocol: Einf, fitted maximum growth inhibition of combination (fraction); higher = stronger maximal inhibition
- conditionLabel: in vitro model: dormancy (butyrate + nitrate, low O2); time point: constant (~7 days, model-specific)
assayReadout: Einf
# respond with the number and nothing more

COc1nc2ccc(Br)cc2cc1[C@@H](c1ccccc1)[C@@](O)(CCN(C)C)c1cccc2ccccc12 [bedaquiline] + CO[C@H]1/C=C/O[C@@]2(C)Oc3c(C)c(O)c4c(O)c(c(/C=N/N5CCN(C6CCCC6)CC5)c(O)c4c3C2=O)NC(=O)/C(C)=C\C=C\[C@H](C)[C@H](O)[C@@H](C)[C@@H](O)[C@@H](C)[C@H](OC(C)=O)[C@@H]1C [rifapentine] :: 0.941
CC(C)/N=c1\cc2n(-c3ccc(Cl)cc3)c3ccccc3nc-2cc1Nc1ccc(Cl)cc1 [clofazimine] + COc1c(N2C[C@@H]3CCCN[C@@H]3C2)c(F)cc2c(=O)c(C(=O)O)cn(C3CC3)c12 [moxifloxacin] :: 0.931
CC(C)/N=c1\cc2n(-c3ccc(Cl)cc3)c3ccccc3nc-2cc1Nc1ccc(Cl)cc1 [clofazimine] + CC[C@@H](CO)NCCN[C@@H](CC)CO [ethambutol] :: 0.788
COc1c(N2C[C@@H]3CCCN[C@@H]3C2)c(F)cc2c(=O)c(C(=O)O)cn(C3CC3)c12 [moxifloxacin] + NC(=O)c1cnccn1 [pyrazinamide] :: 0.921
COc1nc2ccc(Br)cc2cc1[C@@H](c1ccccc1)[C@@](O)(CCN(C)C)c1cccc2ccccc12 [bedaquiline] + O=[N+]([O-])c1cn2c(n1)OC[C@@H](OCc1ccc(OC(F)(F)F)cc1)C2 [pretomanid] :: 0.927
CO[C@H]1/C=C/O[C@@]2(C)Oc3c(C)c(O)c4c(O)c(c(/C=N/N5CCN(C6CCCC6)CC5)c(O)c4c3C2=O)NC(=O)/C(C)=C\C=C\[C@H](C)[C@H](O)[C@@H](C)[C@@H](O)[C@@H](C)[C@H](OC(C)=O)[C@@H]1C [rifapentine] + CO[C@H]1/C=C/O[C@@]2(C)Oc3c(C)c(O)c4c(O)c(c(/C=N/N5CCN(C)CC5)c(O)c4c3C2=O)NC(=O)/C(C)=C\C=C\[C@H](C)[C@H](O)[C@@H](C)[C@@H](O)[C@@H](C)[C@H](OC(C)=O)[C@@H]1C :: 0.902
COc1nc2ccc(Br)cc2cc1[C@@H](c1ccccc1)[C@@](O)(CCN(C)C)c1cccc2ccccc12 [bedaquiline] + CO[C@H]1/C=C/O[C@@]2(C)Oc3c(C)c(O)c4c(O)c(c(/C=N/N5CCN(C)CC5)c(O)c4c3C2=O)NC(=O)/C(C)=C\C=C\[C@H](C)[C@H](O)[C@@H](C)[C@@H](O)[C@@H](C)[C@H](OC(C)=O)[C@@H]1C [rifampicin] :: 0.921
CC(=O)NC[C@H]1CN(c2ccc(N3CCOCC3)c(F)c2)C(=O)O1 [linezolid] + NC(=O)c1cnccn1 [pyrazinamide] :: 0.878

For Mycobacterium tuberculosis Erdman (autoluminescent), give Einf of the listed compound: CC[C@@H](CO)NCCN[C@@H](CC)CO [ethambutol] + CO[C@H]1/C=C/O[C@@]2(C)Oc3c(C)c(O)c4c(O)c(c(/C=N/N5CCN(C6CCCC6)CC5)c(O)c4c3C2=O)NC(=O)/C(C)=C\C=C\[C@H](C)[C@H](O)[C@@H](C)[C@@H](O)[C@@H](C)[C@H](OC(C)=O)[C@@H]1C [rifapentine]
0.855

For Mycobacterium tuberculosis Erdman (autoluminescent), give Einf of the listed compound: CC(C)/N=c1\cc2n(-c3ccc(Cl)cc3)c3ccccc3nc-2cc1Nc1ccc(Cl)cc1 [clofazimine] + NC(=O)c1cnccn1 [pyrazinamide]
0.935

For Mycobacterium tuberculosis Erdman (autoluminescent), give Einf of the listed compound: COc1c(N2C[C@@H]3CCCN[C@@H]3C2)c(F)cc2c(=O)c(C(=O)O)cn(C3CC3)c12 [moxifloxacin] + CO[C@H]1/C=C/O[C@@]2(C)Oc3c(C)c(O)c4c(O)c(c(/C=N/N5CCN(C)CC5)c(O)c4c3C2=O)NC(=O)/C(C)=C\C=C\[C@H](C)[C@H](O)[C@@H](C)[C@@H](O)[C@@H](C)[C@H](OC(C)=O)[C@@H]1C [rifampicin]
0.923

For Mycobacterium tuberculosis Erdman (autoluminescent), give Einf of the listed compound: NNC(=O)c1ccncc1 [isoniazid] + NC(=O)c1cnccn1 [pyrazinamide]
0.897

* * *

- System: Mycobacterium tuberculosis Erdman (autoluminescent)
- experimentalProtocol: total FIC50 (Loewe) at 50% inhibition, three-drug combination (log2); higher = more antagonistic
- conditionLabel: in vitro model: dormancy (butyrate + nitrate, low O2); time point: terminal (~4-5 doublings, model-specific)
assayReadout: total FIC50
# respond with the number and nothing more

Guide cases for total FIC50, answers given:
CC[C@@H](CO)NCCN[C@@H](CC)CO [ethambutol] + COc1c(N2C[C@@H]3CCCN[C@@H]3C2)c(F)cc2c(=O)c(C(=O)O)cn(C3CC3)c12 [moxifloxacin] + CO[C@H]1/C=C/O[C@@]2(C)Oc3c(C)c(O)c4c(O)c(c(/C=N/N5CCN(C6CCCC6)CC5)c(O)c4c3C2=O)NC(=O)/C(C)=C\C=C\[C@H](C)[C@H](O)[C@@H](C)[C@@H](O)[C@@H](C)[C@H](OC(C)=O)[C@@H]1C [rifapentine] :: 0.309
COc1c(N2C[C@@H]3CCCN[C@@H]3C2)c(F)cc2c(=O)c(C(=O)O)cn(C3CC3)c12 [moxifloxacin] + O=[N+]([O-])c1cn2c(n1)OC[C@@H](OCc1ccc(OC(F)(F)F)cc1)C2 [pretomanid] + CO[C@H]1/C=C/O[C@@]2(C)Oc3c(C)c(O)c4c(O)c(c(/C=N/N5CCN(C6CCCC6)CC5)c(O)c4c3C2=O)NC(=O)/C(C)=C\C=C\[C@H](C)[C@H](O)[C@@H](C)[C@@H](O)[C@@H](C)[C@H](OC(C)=O)[C@@H]1C [rifapentine] :: 1.17
CC[C@@H](CO)NCCN[C@@H](CC)CO [ethambutol] + O=[N+]([O-])c1cn2c(n1)OC[C@@H](OCc1ccc(OC(F)(F)F)cc1)C2 [pretomanid] + CO[C@H]1/C=C/O[C@@]2(C)Oc3c(C)c(O)c4c(O)c(c(/C=N/N5CCN(C)CC5)c(O)c4c3C2=O)NC(=O)/C(C)=C\C=C\[C@H](C)[C@H](O)[C@@H](C)[C@@H](O)[C@@H](C)[C@H](OC(C)=O)[C@@H]1C [rifampicin] :: -0.599
COc1nc2ccc(Br)cc2cc1[C@@H](c1ccccc1)[C@@](O)(CCN(C)C)c1cccc2ccccc12 [bedaquiline] + CC(C)/N=c1\cc2n(-c3ccc(Cl)cc3)c3ccccc3nc-2cc1Nc1ccc(Cl)cc1 [clofazimine] + NC(=O)c1cnccn1 [pyrazinamide] :: -0.97

For Mycobacterium tuberculosis Erdman (autoluminescent), give total FIC50 of the listed molecule: COc1nc2ccc(Br)cc2cc1[C@@H](c1ccccc1)[C@@](O)(CCN(C)C)c1cccc2ccccc12 [bedaquiline] + CC[C@@H](CO)NCCN[C@@H](CC)CO [ethambutol] + CO[C@H]1/C=C/O[C@@]2(C)Oc3c(C)c(O)c4c(O)c(c(/C=N/N5CCN(C)CC5)c(O)c4c3C2=O)NC(=O)/C(C)=C\C=C\[C@H](C)[C@H](O)[C@@H](C)[C@@H](O)[C@@H](C)[C@H](OC(C)=O)[C@@H]1C [rifampicin]
0.467

For Mycobacterium tuberculosis Erdman (autoluminescent), give total FIC50 of the listed molecule: CC(C)/N=c1\cc2n(-c3ccc(Cl)cc3)c3ccccc3nc-2cc1Nc1ccc(Cl)cc1 [clofazimine] + NC(=O)c1cnccn1 [pyrazinamide] + CO[C@H]1/C=C/O[C@@]2(C)Oc3c(C)c(O)c4c(O)c(c(/C=N/N5CCN(C6CCCC6)CC5)c(O)c4c3C2=O)NC(=O)/C(C)=C\C=C\[C@H](C)[C@H](O)[C@@H](C)[C@@H](O)[C@@H](C)[C@H](OC(C)=O)[C@@H]1C [rifapentine]
-0.0992

For Mycobacterium tuberculosis Erdman (autoluminescent), give total FIC50 of the listed molecule: CC(C)/N=c1\cc2n(-c3ccc(Cl)cc3)c3ccccc3nc-2cc1Nc1ccc(Cl)cc1 [clofazimine] + COc1c(N2C[C@@H]3CCCN[C@@H]3C2)c(F)cc2c(=O)c(C(=O)O)cn(C3CC3)c12 [moxifloxacin] + O=[N+]([O-])c1cn2c(n1)OC[C@@H](OCc1ccc(OC(F)(F)F)cc1)C2 [pretomanid]
0.461

* * *

- Test system: Mycobacterium tuberculosis Erdman (autoluminescent)
- experimentalProtocol: GRinf, maximum normalised growth rate inhibition (unitless (-1 to 1)); higher = less effect (negative = killing)
- conditionLabel: in vitro model: dormancy (butyrate + nitrate, low O2); time point: constant (~7 days, model-specific)
// GRinf lookup, one value per entry
# respond with the number and nothing more

CO[C@H]1/C=C/O[C@@]2(C)Oc3c(C)c(O)c4c(O)c(c(/C=N/N5CCN(C)CC5)c(O)c4c3C2=O)NC(=O)/C(C)=C\C=C\[C@H](C)[C@H](O)[C@@H](C)[C@@H](O)[C@@H](C)[C@H](OC(C)=O)[C@@H]1C [rifampicin] :: 0.176
CC(C)/N=c1\cc2n(-c3ccc(Cl)cc3)c3ccccc3nc-2cc1Nc1ccc(Cl)cc1 [clofazimine] :: 0.339
COc1nc2ccc(Br)cc2cc1[C@@H](c1ccccc1)[C@@](O)(CCN(C)C)c1cccc2ccccc12 [bedaquiline] :: 0.184

For the next question, use this compound.
Note down GRinf recorded for O=[N+]([O-])c1cn2c(n1)OC[C@@H](OCc1ccc(OC(F)(F)F)cc1)C2 [pretomanid]
0.272
